System: PPARg DBDmut IVT, anti-PPARg (DBD mutation: PPARg1 K132A/R137A, NR concentration 270 nM)
Experiment: PBM binding z-score (relative to random genomic background probes); higher = stronger binding; sequences stand for … in GC…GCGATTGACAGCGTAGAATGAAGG
Lab note: anything with PBM binding z-score at or over 0.4 counts as yes (1); the rest go in no (0).

Exam item: decide whether the reported PBM binding z-score for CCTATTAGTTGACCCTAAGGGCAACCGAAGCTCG is at least 0.4.
yes (1)

----------
System: VDR:RXRa (NR concentration 270 nM, RXRa partner concentration 90 nM)
Assay: PBM binding z-score (relative to random genomic background probes); higher = stronger binding; sequences stand for … in GC…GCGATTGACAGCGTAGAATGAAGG
Below: a set of entries, each annotated with reported PBM binding z-score.
API doc: respond with a numeric literal and nothing else, no unit.

Below, each entry is followed by its recorded PBM binding z-score result.
| primary-sequence | PBM binding z-score |
| --- | --- |
| CGTCCAAGGTCAATGCTAGGTCAGTGTAAGCATT | 4.85 |
| ATACCAAGGTGATCGAGAGGTCGTTGATACTAAC | 3.02 |
| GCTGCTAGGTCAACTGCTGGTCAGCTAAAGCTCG | 1.38 |
| CCTAGCAGGCCAATCTGTGTCACTCAAGGCTTGA | -0.331 |
| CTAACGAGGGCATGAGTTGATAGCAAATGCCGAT | 1.4 |

Write down the reported PBM binding z-score of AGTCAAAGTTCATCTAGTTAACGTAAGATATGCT , test system: VDR:RXRa (NR concentration 270 nM, RXRa partner concentration 90 nM).
4.86

Form entry - test system: VDR:RXRa (NR concentration 270 nM, RXRa partner concentration 90 nM); read-out: PBM binding z-score; sequence: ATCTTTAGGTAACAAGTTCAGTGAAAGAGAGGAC
1.81

Look up PBM binding z-score with VDR:RXRa (NR concentration 270 nM, RXRa partner concentration 90 nM) for this sequence: CGTCCATGGTCATAGGAGGTCAGTGAAGACAGAT
2.94

----------
Each entry below lists one item and its recorded PBM binding z-score value.
Test system: RARb homodimer (NR concentration 270 nM)
Assay: PBM binding z-score (relative to random genomic background probes); higher = stronger binding; sequences stand for … in GC…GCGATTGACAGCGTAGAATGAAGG
// return just the number, without any unit appended

| primary-sequence | tested-target | assay-metric | readout-number |
| --- | --- | --- | --- |
| TAGCCTAGGTCATTCAGGTGCCAGTATAGAAAGC | RARb homodimer (NR concentration 270 nM) | PBM binding z-score | 2.67 |
| AGTCAAAGTTCATCTAGGCAACGTAAGATATGCT | RARb homodimer (NR concentration 270 nM) | PBM binding z-score | 3.91 |
| CCTTACGGGTCACTACAGGTTATAGCATCGGAGT | RARb homodimer (NR concentration 270 nM) | PBM binding z-score | 3.27 |
| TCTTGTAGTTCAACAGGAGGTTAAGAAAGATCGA | RARb homodimer (NR concentration 270 nM) | PBM binding z-score | 2.2 |
| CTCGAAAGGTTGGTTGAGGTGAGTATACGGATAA | RARb homodimer (NR concentration 270 nM) | PBM binding z-score | 1.12 |
| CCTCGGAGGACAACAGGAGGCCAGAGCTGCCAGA | RARb homodimer (NR concentration 270 nM) | PBM binding z-score | 0.662 |

May I ask what PBM binding z-score has been recorded for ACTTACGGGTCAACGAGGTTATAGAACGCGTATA ?
3.89

GET /values?readout=PBM binding z-score&item= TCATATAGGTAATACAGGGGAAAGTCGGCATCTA
0.303

Quick check: PBM binding z-score of TCGAGTAGGTTTCCAATGGGGCATTCAGCTTTCT ?
-0.0582

What does the data say about its PBM binding z-score? Entry: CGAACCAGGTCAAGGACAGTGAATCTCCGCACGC
3.09

Which value of PBM binding z-score has been reported for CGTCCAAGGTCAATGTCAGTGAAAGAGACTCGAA in the records?
3.64

I'd like to know its PBM binding z-score. The sequence in question is GCTTACGGGTCAAAGGTTATAGCTTGAATAGAAT
3.13

From: the supplement of paper PMC6555819
